Entry source: the RNAGym collection of RNA variant scans (doi:10.1101/gr.219683.116)

B1: mRNA-splicing (parent)
chain: AGUUGCUGCUGGGAGCUCCAGCACAGUGAAAUGGACAGAAGGGCAGAGCAA

Variants of: B1
Assay: exon inclusion enrichment index; higher = more inclusion; WT1 exon 5 minigene, HEK293
# exon inclusion enrichment index annotations
Returns: the value as a bare number; no unit string appended.

// below: answered variants
[
  {
    "changes": "G5A U7C G8A U10C A30G A31G",
    "exon inclusion enrichment index": 0.823
  },
  {
    "changes": "G5U G8U C9U U17A C18U",
    "exon inclusion enrichment index": 0.0627
  },
  {
    "changes": "G5A U7C G8A U10C A25G",
    "exon inclusion enrichment index": 3.43
  }
]

q: Please look up its exon inclusion enrichment index: C6A U7A C9A U10A A31G U32G
a: 0.383

q: Consider next the variant G5C C6U G8C C9U U10C A30U A31G in the same way.
a: 2.12

q: Consider next the variant `A35C` in the same way.
a: 0.041

q: Consider next the variant G5U G8U C9U C19G A20C in the same way.
a: 0.13

q: Consider next the variant G5A C6G U7G C9A G21A in the same way.
a: 0.00299

q: Consider next the variant `C6U` in the same way.
a: 0.0511

q: Consider next the variant G5C C6U G8C C9U U10C C19G A20U in the same way.
a: 1.72

q: Consider next the variant G5A C6U U7A G8U C9A G38U A39C in the same way.
a: 0.045
